Overview of recorded GI50 for various molecules
System: HL-60
Protocol Summary: NCI tumour cell line growth inhibition, 48 h
Calls of active or inactive are those of the source. Cut-off read from the data, not from the text of the source: active = GI50 up to about 1.1 µM and inactive = higher.
Measured Property: GI50

{"Molecule": "CCN(CC)/[N+]([O-])=N/OC", "Reported Result": "> 100 µM (inactive)"}
{"Molecule": "O=c1/c(=C/c2ccccc2O)sc2nc3ccccc3n12", "Reported Result": "4.9 µM (inactive)"}
{"Molecule": "CCC(C(=O)c1cccs1)C(O)(C(F)(F)F)C(F)(F)F (stereo not given)", "Reported Result": "3.39 µM (inactive)"}
{"Molecule": "COc1cc(C2c3cc4c(cc3OC(O)C2C)OCO4)cc(OC)c1O (stereo not given)", "Reported Result": "2.92 µM (inactive)"}
{"Molecule": "COc1cccc2c1cc([N+](=O)[O-])c1c(C(=O)O)cc3c(c12)OCO3", "Reported Result": "23.1 µM (inactive)"}
{"Molecule": "OC1(c2ccccc2)CCN(Cc2c[nH]c3ccccc23)CC1", "Reported Result": "48.2 µM (inactive)"}
{"Molecule": "N#CC(NCCO)=C1C(=O)c2ccccc2C1=O", "Reported Result": "> 100 µM (inactive)"}
{"Molecule": "COc1ccccc1NC(=S)Nc1cc(C)cc(C)n1", "Reported Result": "> 100 µM (inactive)"}
{"Molecule": "CC(=O)Nc1ccc(C(=O)N2N=C(C)/C(=C\\c3c(O)ccc4ccccc34)C2=O)cc1", "Reported Result": "57.4 µM (inactive)"}
{"Molecule": "N#Cc1nc(C#N)c(N)[nH]1", "Reported Result": "> 100 µM (inactive)"}

The measured values listed here are drawn from ChEMBL document CHEMBL1201862.
